test system: PIK3C2G; conditions: concentration: 1 μM, replicates: in singlicate; n = 1
Recorded %Inh values for a group of compounds are listed next.

Compound: O=C(c1ccc(-c2cc(-c3c[nH]nc3-c3ccccn3)ccn2)cc1)N1CCCC1 [GW792479]
%Inh, %: 5
--
Compound: COC(=O)c1cccc(NC(=O)NCCNc2ccnc(Nc3ccc(F)cc3)n2)c1 [GSK1379883]
%Inh, %: 0
--
Compound: Cl.Cn1ccc(-c2cccc(Nc3ccnc4cc(-c5nccs5)ccc34)c2)n1 [GW525701]
%Inh, %: 0
--
Compound: Cc1ccc(C)c(NC(=O)NCCNc2ccnc(Nc3ccc(F)cc3)n2)c1 [GSK1379878]
%Inh, %: 0
--
Compound: CC(C)(C)c1ccc(-n2cnc3c(N)ncnc32)cc1 [SKF-97263]
%Inh, %: 12
--
Compound: FC(F)(F)c1cc(Nc2nccc(-c3c(-c4ccc(Cl)cc4)nn4ncccc34)n2)ccc1Cl [GW829351]
%Inh, %: 0
--
Compound: CC(C)(C)OC(=O)NC1CCCN(c2cc(-c3ccc4c(N)n[nH]c4c3)nc(N)n2)C1 (stereo not drawn) [GSK2286096]
%Inh, %: 0
--
Compound: Clc1ccc(-c2cc(-c3c[nH]nc3-c3ccccn3)ccn2)cc1 [GW681251]
%Inh, %: 0
--
Compound: Cc1ccc(O)cc1Nc1cc(C(F)(F)F)nc2ccc(-c3ccncc3)cc12 [GW630823]
%Inh, %: 15
--
Compound: Fc1ccc(Nc2nccc(-c3c(-c4ccc(Cl)cc4)nn4ncccc34)n2)cc1F [GW829058]
%Inh, %: 29
--
Compound: FC(F)(F)c1ccc(-c2cc(-c3c[nH]nc3-c3ccccn3)ccn2)cc1 [GW599550]
%Inh, %: 0
--
Compound: Nc1n[nH]c2nnc(-c3ccccc3)cc12 [SB-517389]
%Inh, %: 0
--
Compound: NC(=O)c1sc(-n2cnc3ccccc32)cc1OCc1ccccc1F [GSK1024306]
%Inh, %: 0
--
Compound: CC(=O)Nc1n[nH]c2ncc(-c3ccccc3)cc12 [SB-548492]
%Inh, %: 23
--
Compound: Fc1cccc(COc2ccc(Nc3ncnc4cc[nH]c34)cc2Cl)c1
%Inh, %: 17
--
Compound: CS(=O)(=O)CCNCc1ccc(-c2ccc3ncnc(Nc4ccc(OCc5ccccc5)c(Cl)c4)c3c2)o1.Cl [GW574783]
%Inh, %: 0
--
Compound: Cl.Cl.c1ccc(-c2cc3ccncc3cc2OC2CCNCC2)cc1 [GSK1122999]
%Inh, %: 0
--
Compound: COc1ccc(NC(=O)c2ccc(-c3cc(-c4nnc(C)o4)ccc3C)cc2)cc1 [GW595885]
%Inh, %: 0

---

test system: TNNI3K; settings: concentration: 1 μM, replicates: in singlicate; n = 1
Listing of entries alongside the reported %Inh.
Assay metric: %Inh (%)

Smiles input: Nc1nccc2scc(-c3ccc4c(c3)CCN4C(=O)Cc3cc(F)ccc3F)c12
Assay metric: %Inh
Result value: 4
//
Smiles input: Clc1cccc(-c2nc(Nc3ccncc3)c3ccccc3n2)c1
Assay metric: %Inh
Result value: 0
//
Smiles input: Cc1ccc(C)c(NC(=O)NCCNc2ccnc(Nc3ccc(F)cc3)n2)c1
Assay metric: %Inh
Result value: 0

---

tested on: MARK3;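 further: kd values determined as follow-up on hits from a single-replicate KINOMEscan panel screen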

Smiles input: CCn1c(-c2ccncc2)nc2cnccc21
Kd: > 10 µM
